Test: protein stability index of a GFP-peptide fusion (yeast GPS) (PSI 1-4); higher = more stable; sorted into four equal gates, so the index is relative within each strain
Details: doa10∆
The sequences listed here are annotated with their protein stability index.
measured endpoint: protein stability index

INSERT INTO measurements (seq_text, measured_endpoint, recorded_value) VALUES
  ('DMDGVDFNQAFEGTDDN [BRN1]', 'protein stability index', 2.97),
  ('ALPDAVTIIEPKEEEPI [RPS3]', 'protein stability index', 2.93),
  ('LSLYSTDLENSSLFQEK [ECM29]', 'protein stability index', 2.95),
  ('VNDTVKIDLASGKITDF [RPS4A]', 'protein stability index', 3.07),
  ('EKELKIFTDAGRVYRPL [RPB2]', 'protein stability index', 3.04);
